# measured-on: LRRK2 (endogenous, HiBit tagged) (Homo sapiens)
# Construct: endogenous in cells; host or cells: HEK293 cells with HiBit knock-in at the endogenous LRRK2 locus, stably expressing firefly luciferase
# test-name: Endogenous LRRK2 degradation assay, endogenous gene C-terminally HiBit-tagged in HEK293 cells (Nano-Glo Dual Luciferase)
# Assay type: cell-based
# condition-notes: endogenous HiBit-tagged LRRK2 in HEK293 cells, 24 hours treatment; read-out: **Endogenous WT Dmax (%)
This listing pairs compounds with measured Dmax.

>  <compound>
CC1(Oc2ccc3n[nH]c(-c4cc(N5CCC(CO[C@H]6C[C@H](N7CCC(c8ccc9c(c8F)CN(C8CCC(=O)NC8=O)C9=O)CC7)C6)CC5)ncn4)c3c2)CC1 (stereo partly drawn)

>  <Dmax>
50 to 70%

$$$$
>  <compound>
Cc1c(N2CCC(O[C@H]3CC[C@H](CN4CCN(c5cc(-c6n[nH]c7ccc(OC8(C)CC8)cc67)ncn5)CC4)CC3)CC2)ccc2c1CN(C1CCC(=O)NC1=O)C2=O (stereo partly drawn)

>  <Dmax>
50 to 70%

$$$$
>  <compound>
COc1c(N2CCC(N3CC(F)(CC4CCN(c5cc(-c6[nH]nc7ccc(OC8(C)CC8)cc67)ncn5)CC4)C3)CC2)ccc2c1CN(C1CCC(=O)NC1=O)C2=O (stereo not drawn)

>  <Dmax>
50 to 70%

$$$$

====

This listing pairs molecules with measured Dmax.
# measured-on: wildtype LRRK2 (Homo sapiens)
# Construct: expressed in transfected cells; host or cells: HEK293 (ATCC CRL-1573), transient transfection, mammalian expression vector with ubiquitin promoter
# Sequence (Q5S007 whole entry): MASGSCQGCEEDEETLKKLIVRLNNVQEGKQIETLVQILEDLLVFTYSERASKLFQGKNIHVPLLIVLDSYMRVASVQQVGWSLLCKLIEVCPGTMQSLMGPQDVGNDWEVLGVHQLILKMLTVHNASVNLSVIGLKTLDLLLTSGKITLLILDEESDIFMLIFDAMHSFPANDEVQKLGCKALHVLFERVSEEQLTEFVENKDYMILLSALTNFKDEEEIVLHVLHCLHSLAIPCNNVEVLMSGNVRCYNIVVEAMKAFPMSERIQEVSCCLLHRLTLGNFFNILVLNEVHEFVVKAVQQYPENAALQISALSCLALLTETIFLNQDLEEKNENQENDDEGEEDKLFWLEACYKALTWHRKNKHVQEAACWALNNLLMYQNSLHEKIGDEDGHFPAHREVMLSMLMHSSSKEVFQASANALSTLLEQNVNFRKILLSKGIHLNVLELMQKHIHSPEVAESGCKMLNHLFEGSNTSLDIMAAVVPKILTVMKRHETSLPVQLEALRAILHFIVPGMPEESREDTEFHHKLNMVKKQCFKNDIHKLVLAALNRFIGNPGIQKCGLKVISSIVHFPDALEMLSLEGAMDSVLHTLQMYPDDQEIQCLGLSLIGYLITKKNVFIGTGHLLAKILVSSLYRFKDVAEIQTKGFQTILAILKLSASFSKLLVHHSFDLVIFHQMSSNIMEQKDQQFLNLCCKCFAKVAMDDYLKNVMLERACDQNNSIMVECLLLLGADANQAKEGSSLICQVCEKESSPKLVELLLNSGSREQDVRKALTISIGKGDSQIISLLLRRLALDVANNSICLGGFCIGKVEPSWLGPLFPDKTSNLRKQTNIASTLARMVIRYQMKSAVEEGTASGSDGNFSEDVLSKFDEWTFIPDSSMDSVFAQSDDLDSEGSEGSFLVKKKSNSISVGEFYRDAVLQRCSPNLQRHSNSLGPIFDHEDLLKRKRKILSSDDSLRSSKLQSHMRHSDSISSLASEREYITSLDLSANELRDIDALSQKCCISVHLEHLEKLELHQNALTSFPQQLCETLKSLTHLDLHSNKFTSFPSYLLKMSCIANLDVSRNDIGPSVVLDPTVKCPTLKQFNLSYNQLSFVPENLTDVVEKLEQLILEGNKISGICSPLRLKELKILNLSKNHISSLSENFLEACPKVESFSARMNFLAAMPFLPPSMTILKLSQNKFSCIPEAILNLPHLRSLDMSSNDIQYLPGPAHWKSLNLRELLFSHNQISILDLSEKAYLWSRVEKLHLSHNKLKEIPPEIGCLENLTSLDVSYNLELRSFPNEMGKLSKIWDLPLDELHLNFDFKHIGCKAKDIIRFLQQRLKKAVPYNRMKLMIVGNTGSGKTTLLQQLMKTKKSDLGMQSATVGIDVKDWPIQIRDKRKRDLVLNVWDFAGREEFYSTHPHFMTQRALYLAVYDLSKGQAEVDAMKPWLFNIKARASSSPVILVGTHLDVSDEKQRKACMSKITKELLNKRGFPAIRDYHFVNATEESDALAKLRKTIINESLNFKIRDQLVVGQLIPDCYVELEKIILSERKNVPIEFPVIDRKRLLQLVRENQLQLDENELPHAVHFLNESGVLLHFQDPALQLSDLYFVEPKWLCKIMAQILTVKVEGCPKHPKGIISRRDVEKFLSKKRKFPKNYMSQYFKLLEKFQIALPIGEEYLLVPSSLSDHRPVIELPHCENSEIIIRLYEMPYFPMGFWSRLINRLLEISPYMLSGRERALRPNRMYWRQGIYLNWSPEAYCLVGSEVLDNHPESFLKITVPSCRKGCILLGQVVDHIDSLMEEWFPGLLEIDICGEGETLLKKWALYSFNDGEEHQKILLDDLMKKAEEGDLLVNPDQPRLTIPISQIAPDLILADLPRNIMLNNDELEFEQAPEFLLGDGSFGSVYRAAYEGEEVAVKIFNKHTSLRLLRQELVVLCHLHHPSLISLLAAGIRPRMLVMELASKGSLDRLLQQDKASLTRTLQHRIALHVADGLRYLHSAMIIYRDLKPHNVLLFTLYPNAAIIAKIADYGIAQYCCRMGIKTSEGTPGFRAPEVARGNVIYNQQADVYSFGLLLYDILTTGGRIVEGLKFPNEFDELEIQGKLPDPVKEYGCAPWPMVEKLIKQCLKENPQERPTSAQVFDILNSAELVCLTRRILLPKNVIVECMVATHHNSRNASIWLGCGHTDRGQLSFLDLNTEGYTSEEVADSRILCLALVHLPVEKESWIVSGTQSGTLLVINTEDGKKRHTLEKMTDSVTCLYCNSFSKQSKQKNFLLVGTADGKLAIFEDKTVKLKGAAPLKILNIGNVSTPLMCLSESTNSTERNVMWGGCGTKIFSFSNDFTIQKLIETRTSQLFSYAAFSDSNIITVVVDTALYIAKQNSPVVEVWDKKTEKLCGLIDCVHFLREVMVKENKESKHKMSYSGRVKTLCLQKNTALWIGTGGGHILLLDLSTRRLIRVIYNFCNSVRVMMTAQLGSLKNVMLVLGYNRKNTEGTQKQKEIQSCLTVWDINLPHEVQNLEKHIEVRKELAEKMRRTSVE
# test-name: LRRK2 degradation assay, HiBit-tagged wildtype LRRK2 expressed from plasmid in HEK293 cells (Nano-Glo Dual-Luciferase)
# Format: cell-based
# condition-notes: HiBit-tagged wildtype LRRK2 in HEK293 cells, 24 hours; read-out: **WT Dmax (%)
property-label: Dmax

>  <molecule>
CC1(Oc2ccc3n[nH]c(-c4cc(N5CC(F)(CN6CCN(CC7CCN(c8ccc9c(c8)C(=O)N(C8CCC(=O)NC8=O)C9=O)CC7)CC6)C5)ncn4)c3c2)CC1 (centres unmarked)

>  <result>
≥ 70%

$$$$
>  <molecule>
CC1(Oc2ccc3[nH]nc(-c4cc(N5CCN(CC6CCN(CC7CCN(c8ccc9c(c8)C(=O)N(C8CCC(=O)NC8=O)C9=O)CC7)CC6)CC5)ncn4)c3c2)CC1 (centres unmarked)

>  <result>
< 50%

$$$$
>  <molecule>
C[C@H]1CN(c2cc(-c3n[nH]c4ccc(OC5(C)CC5)cc34)ncn2)CCN1CC1(F)CCN(CC2CCN(c3ccc4c(c3)C(=O)N(C3CCC(=O)NC3=O)C4=O)CC2)CC1 (some centres unmarked)

>  <result>
< 50%

$$$$
>  <molecule>
CC1(Oc2ccc3[nH]nc(-c4cc(N5CCC(CN6CCN(C(=O)C7CCN(c8ccc9c(c8)C(=O)N(C8CCC(=O)NC8=O)C9=O)CC7)CC6)CC5)ncn4)c3c2)CC1 (centres unmarked)

>  <result>
50 to 70%

$$$$
>  <molecule>
CC1(Oc2ccc3[nH]nc(-c4cc(N5CCC(CN6CC[C@H](OC7CCN(c8ccc9c(c8)C(=O)N(C8CCC(=O)NC8=O)C9=O)CC7)C6)CC5)ncn4)c3c2)CC1 (some centres unmarked)

>  <result>
50 to 70%

$$$$

====

# measured-on: LRRK2 (endogenous, HiBit tagged) (Homo sapiens)
# Construct: endogenous in cells; host or cells: HEK293 cells with HiBit knock-in at the endogenous LRRK2 locus, stably expressing firefly luciferase
# test-name: Endogenous LRRK2 degradation assay, endogenous gene C-terminally HiBit-tagged in HEK293 cells (Nano-Glo Dual Luciferase)
# Type: cell-based
# condition-notes: endogenous HiBit-tagged LRRK2 in HEK293 cells, 24 hours treatment; read-out: Endogenous WT Dmax
This listing pairs molecules with measured Dmax.

>  <molecule>
CC1(Oc2ccc3n[nH]c(-c4cc(N5CCC(O[C@H]6CC[C@H](OC7CCN(c8ccc9c(c8F)CN(C8CCC(=O)NC8=O)C9=O)CC7)C6)CC5)ncn4)c3c2)CC1 (mixture of isomers)

>  <Dmax>
50 to 70%

$$$$
>  <molecule>
COc1c(N2CCC(O[C@H]3CC[C@H](CN4CCN(c5cc(-c6[nH]nc7ccc(OC8(C)CC8)cc67)ncn5)CC4)CC3)CC2)ccc2c1CN(C1CCC(=O)NC1=O)C2=O (some centres unmarked)

>  <Dmax>
50 to 70%

$$$$
>  <molecule>
CC1(Oc2ccc3[nH]nc(-c4cc(N5CCC(CN6CC7CC(C6)N7CC6CCN(c7ccc8c(c7F)CN(C7CCC(=O)NC7=O)C8=O)CC6)CC5)ncn4)c3c2)CC1 (centres unmarked)

>  <Dmax>
50 to 70%

$$$$
>  <molecule>
CC1(Oc2ccc3[nH]nc(-c4cc(N5CCC(CN6CCN(CC7CCN(c8ccc9c(c8F)CN(C8CCC(=O)NC8=O)C9=O)CC7)CC6(C)C)CC5)ncn4)c3c2)CC1 (centres unmarked)

>  <Dmax>
50 to 70%

$$$$
>  <molecule>
COc1c(N2CCC(CN3CCN(CC4CCN(c5cc(-c6n[nH]c7ccc(OC8(C)CC8)cc67)ncn5)CC4)CC3)CC2)ccc2c1CN(C1CCC(=O)NC1=O)C2=O (centres unmarked)

>  <Dmax>
≥ 70%

$$$$

====

# measured-on: LRRK2 (endogenous, HiBit tagged) (Homo sapiens, UniProt Q5S007)
# Construct: endogenous in cells; host or cells: HEK293 cells with HiBit knock-in at the endogenous LRRK2 locus, stably expressing firefly luciferase
# Sequence (Q5S007 whole entry): as above
# test-name: Endogenous LRRK2 degradation assay, endogenous gene C-terminally HiBit-tagged in HEK293 cells (Nano-Glo Dual Luciferase)
# Assay type: cell-based
# condition-notes: endogenous HiBit-tagged LRRK2, HEK293 cells, 24 hours; read-out: *Endogenous WT DC50
This listing pairs molecules with measured DC50.

>  <molecule>
CC1(Oc2ccc3[nH]nc(-c4ccnc(N5CC(CC6CCN(CC7CCN(c8ccc9c(c8)C(=O)N(C8CCC(=O)NC8=O)C9=O)CC7)CC6)C5)c4)c3c2)CC1 (stereo not drawn)

>  <measured-on>
LRRK2 (endogenous, HiBit tagged) (Homo sapiens, UniProt Q5S007)

>  <DC50>
< 10 nM

$$$$
>  <molecule>
CC1(Oc2ccc3[nH]nc(-c4cc(N5CCC(CN6CCC(F)(CN7CCN(c8cc9c(cc8F)C(=O)N(C8CCC(=O)NC8=O)C9)CC7)CC6)CC5)ncn4)c3c2)CC1 (stereo not drawn)

>  <measured-on>
LRRK2 (endogenous, HiBit tagged) (Homo sapiens, UniProt Q5S007)

>  <DC50>
< 10 nM

$$$$
>  <molecule>
CC1(Oc2cc3c(-c4cc(N5CCC(CN6CCC(F)(CN7CCN(c8ccc9c(c8F)CN(C8CCC(=O)NC8=O)C9=O)CC7)CC6)CC5)ncn4)n[nH]c3cc2F)CC1 (stereo not drawn)

>  <measured-on>
LRRK2 (endogenous, HiBit tagged) (Homo sapiens, UniProt Q5S007)

>  <DC50>
< 10 nM

$$$$

====

# measured-on: LRRK2 (endogenous, HiBit tagged) (Homo sapiens)
# Construct: endogenous in cells; host or cells: HEK293 cells with HiBit knock-in at the endogenous LRRK2 locus, stably expressing firefly luciferase
# test-name: Endogenous LRRK2 degradation assay, endogenous gene C-terminally HiBit-tagged in HEK293 cells (Nano-Glo Dual Luciferase)
# Assay type: cell-based
# condition-notes: endogenous HiBit-tagged LRRK2 in HEK293 cells, 24 hours treatment; read-out: *Endogenous WT DC50
This listing pairs molecules with measured DC50.
property-label: DC50

>  <molecule>
CC1(Oc2ccc3n[nH]c(-c4cc(N5CCC(O[C@H]6C[C@H](N7CC8(CCN(c9ccc%10c(c9F)CN(C9CCC(=O)NC9=O)C%10=O)CC8)C7)C6)CC5)ncn4)c3c2)CC1 (stereo partly shown)

>  <measured-on>
LRRK2 (endogenous, HiBit tagged) (Homo sapiens)

>  <property-label>
DC50

>  <result>
< 10 nM

$$$$
>  <molecule>
CC1(Oc2ccc3[nH]nc(-c4cc(N5CCC(CN6CCN(C[C@@H]7CCN(c8ccc9c(c8F)CN(C8CCC(=O)NC8=O)C9=O)C7)CC6)CC5)ncn4)c3c2)CC1 (stereo partly shown)

>  <measured-on>
LRRK2 (endogenous, HiBit tagged) (Homo sapiens)

>  <property-label>
DC50

>  <result>
< 10 nM

$$$$
>  <molecule>
CC1(Oc2cc3c(-c4cc(N5CCC(CN6CCN(CC7CCN(c8ccc9c(c8F)CN(C8CCC(=O)NC8=O)C9=O)CC7)C(C)(C)C6)CC5)ncn4)n[nH]c3cc2F)CC1 (stereo not shown)

>  <measured-on>
LRRK2 (endogenous, HiBit tagged) (Homo sapiens)

>  <property-label>
DC50

>  <result>
< 10 nM

$$$$
>  <molecule>
CC1(Oc2ccc3n[nH]c(-c4cc(N5CCC(O[C@H]6C[C@H](N7CCC8(CC7)CN(c7ccc9c(c7F)CN(C7CCC(=O)NC7=O)C9=O)C8)C6)CC5)ncn4)c3c2)CC1 (stereo partly shown)

>  <measured-on>
LRRK2 (endogenous, HiBit tagged) (Homo sapiens)

>  <property-label>
DC50

>  <result>
< 10 nM

$$$$
>  <molecule>
CC1(Oc2ccc3n[nH]c(-c4cc(N5CCC(CO[C@H]6C[C@H](N7CCC(c8ccc9c(c8F)CN(C8CCC(=O)NC8=O)C9=O)CC7)C6)CC5)ncn4)c3c2)CC1 (stereo partly shown)

>  <measured-on>
LRRK2 (endogenous, HiBit tagged) (Homo sapiens)

>  <property-label>
DC50

>  <result>
< 10 nM

$$$$
>  <molecule>
C[C@H]1CN(CC2CCN(c3cc(-c4n[nH]c5cnc(OC6(C)CC6)cc45)ncn3)CC2)CCN1CC1CCN(c2ccc3c(c2F)CN(C2CCC(=O)NC2=O)C3=O)CC1 (stereo partly shown)

>  <measured-on>
LRRK2 (endogenous, HiBit tagged) (Homo sapiens)

>  <property-label>
DC50

>  <result>
< 10 nM

$$$$
>  <molecule>
C[C@@H]1CN(CC2CCN(c3ccc4c(c3F)CN(C3CCC(=O)NC3=O)C4=O)CC2)CCN1CC1CCN(c2cc(-c3n[nH]c4cnc(OC5(C)CC5)cc34)ncn2)CC1 (stereo partly shown)

>  <measured-on>
LRRK2 (endogenous, HiBit tagged) (Homo sapiens)

>  <property-label>
DC50

>  <result>
< 10 nM

$$$$
>  <molecule>
COc1c(N2CCC(CN3CCN(CC4CCN(c5cc(-c6n[nH]c7cc(F)c(OC8(C)CC8)cc67)ncn5)CC4)C(C)(C)C3)CC2)ccc2c1CN(C1CCC(=O)NC1=O)C2=O (stereo not shown)

>  <measured-on>
LRRK2 (endogenous, HiBit tagged) (Homo sapiens)

>  <property-label>
DC50

>  <result>
< 10 nM

$$$$
>  <molecule>
CC1(Oc2ccc3n[nH]c(-c4cc(N5CCN(C[C@H]6CO[C@H](CN7CCN(c8ccc9c(c8F)CN(C8CCC(=O)NC8=O)C9=O)CC7)CO6)CC5)ncn4)c3c2)CC1 (stereo partly shown)

>  <measured-on>
LRRK2 (endogenous, HiBit tagged) (Homo sapiens)

>  <property-label>
DC50

>  <result>
< 10 nM

$$$$
>  <molecule>
COc1c(N2CCC(CN3CCN(CC4CCN(c5cc(-c6n[nH]c7cc(F)c(OC8(C)CC8)cc67)ncn5)CC4)CC3(C)C)CC2)ccc2c1CN(C1CCC(=O)NC1=O)C2=O (stereo not shown) [Compound 349]

>  <measured-on>
LRRK2 (endogenous, HiBit tagged) (Homo sapiens)

>  <property-label>
DC50

>  <result>
< 10 nM

$$$$
